Exercise: state measured switch fluorescence ratio for each of the sequences provided.
- Test system: ATP;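 note: ATP exposure 15 min at 22 °C before imaging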
- Assay overview: switch fluorescence ratio, 500 uM ATP over buffer (Cy3 cluster intensity, sum of 5 cycles each) (fold (ratio)); higher = stronger signal-on switching upon ATP binding; sequences stand for … in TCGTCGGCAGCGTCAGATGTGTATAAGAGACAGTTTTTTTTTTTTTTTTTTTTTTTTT…TC
- Setup conditions: aptamer strand: ATP DNA aptamer (quencher-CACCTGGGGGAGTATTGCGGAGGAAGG + anchor), 100 nM annealed; ATP concentration: 500 uM
One number for each entry.

Below, each entry is followed by its recorded switch fluorescence ratio result.
In [3]: df
Out[3]:
   chain_sequence  measured_on          recorded_endpoint  meas_value
0      GGTATAGGGG          ATP  switch fluorescence ratio       0.995
1      CGGAGGCAAG          ATP  switch fluorescence ratio        1.14
2      TGCAAATTTT          ATP  switch fluorescence ratio           1
3      ATATAAAATG          ATP  switch fluorescence ratio       0.986
4      TAGCCGACGG          ATP  switch fluorescence ratio        1.03

Provide switch fluorescence ratio values for the following items, in order.
1. GCTGTTCTTC
2. TATTGCTAGG
3. TACTGGAGTA
4. TTTTGCGCGA
5. GGGTGGGTGG
6. ATTTAGGTGG
7. AAAATGGCCA
8. TTAGAGCTAG

1. 0.985
2. 0.958
3. 1.01
4. 1.09
5. 0.989
6. 1.02
7. 1.02
8. 1.07

Each sequence below has a reported value. Please supply its switch fluorescence ratio.
1. CAGGTTAATT
2. TGATGGGGCA
3. GATCAAGGGG
4. AAGAATATGT

[1.02, 1.02, 0.994, 0.976]

Provide switch fluorescence ratio values for the following items, in order.
1. CAGTTTTTTA
2. CGTATCAATT

1: 0.983; 2: 1

Field: switch fluorescence ratio. Fill in for each record below.
1. AATAAGAGAG
2. TGGGTTGTTG
3. ATTTTCCTTT

1: 1; 2: 0.985; 3: 1.02

// for each sequence in input: emit switch fluorescence ratio
1. AAGAGTTTTT
2. GGGCGTAAAA

0.981
1.07

Parameters: items (list). Returns: switch fluorescence ratio for each item.
1. TGGTCAAAAA
2. GTGGCCCTAT
3. GACCATTTAA

[0.997, 0.998, 1.02]

Items follow; give switch fluorescence ratio for each.
1. GCCGGGGAGG
2. GGTTGTGTTT

1. 0.984
2. 0.991

// each listed sequence needs a value for switch fluorescence ratio
1. CTACACGAGA
2. TCTTGGTGT
3. TGTTGTAAGT
4. AGAGGGCGGT
5. GATTCCATAT
6. CGTAGTTTGC

1: 1.09; 2: 0.99; 3: 0.984; 4: 1.02; 5: 1; 6: 1.52
